test: Efflux ratio of permeability from basolateral to apical side to apical to basolateral side in human Caco-2 cells; type: ADME, cell-based
metric.name: efflux ratio
// no unit string in output, number only

COc1cc(C(=O)Nc2nonc2NCc2ccc(-c3cc(Cl)cc(F)c3-c3noc(C)n3)cc2F)on1 1

Here is the next item to consider.
For record `COc1cc(C(=O)Nn2c(NCc3ccc(-c4cc(Cl)cc(F)c4-c4noc(C)n4)cc3F)nc3ccccc32)on1` the listed efflux ratio is 7.1

---

assay: Apparent permeability from apical to basolateral side of human Caco-2 cells; format: ADME, cell-based; conditions: read-out: permeability
metric.name: Papp A→B (×10⁻⁶ cm/s)
Respond numerically; units are ×10⁻⁶ cm/s and should not be typed.

Summary for this molecule, `COc1cc(C(=O)Nc2nonc2NCc2ccc(-c3cc(Cl)cc(F)c3-c3noc(C)n3)cc2F)on1` : Papp A→B is 48

---

Target: B1 bradykinin receptor (Homo sapiens)
Sequence (P46663 whole entry): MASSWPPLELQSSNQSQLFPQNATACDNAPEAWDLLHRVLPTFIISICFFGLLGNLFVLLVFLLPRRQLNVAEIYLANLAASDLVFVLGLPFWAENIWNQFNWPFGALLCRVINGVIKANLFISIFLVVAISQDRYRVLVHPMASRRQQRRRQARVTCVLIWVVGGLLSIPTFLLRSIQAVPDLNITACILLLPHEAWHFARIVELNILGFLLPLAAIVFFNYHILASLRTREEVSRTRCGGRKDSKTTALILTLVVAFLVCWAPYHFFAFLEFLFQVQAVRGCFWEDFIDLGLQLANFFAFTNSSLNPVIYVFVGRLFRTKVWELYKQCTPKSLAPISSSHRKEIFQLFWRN
Assay: Antagonist activity at bradykinin B1 receptor in human IMR90 cells pretreated with IL1-beta assessed as inhibition of DAKD-induced calcium mobilization
pIC50: −log10 of the molar value.
We use 7 as the dividing line for pIC50: on or above the line is TRUE, below is FALSE.

Worked examples, 10 compounds total:
COC(=O)c1c(F)cccc1-c1ccc(CN2Cc3ccccc3C2=O)c(F)c1 FALSE
CC(=O)Nn1c(Cl)cnc1NCc1ccc(-c2cc(Cl)cc(F)c2-c2noc(C)n2)cc1F TRUE
CC(=O)Nn1c(NCc2ccc(-c3cc(Cl)cc(F)c3-c3noc(C)n3)cc2F)nc2ccccc21 TRUE
CC(=O)Nc1nsnc1NCc1ccc(-c2cc(Cl)cc(F)c2-c2noc(C)n2)cc1F TRUE
COc1cc(C(=O)Nn2c(NCc3ccc(-c4cc(Cl)cc(F)c4-c4noc(C)n4)cc3F)nc3ccccc32)on1 TRUE
COc1cc(C(=O)Nc2nonc2NCc2ccc(-c3cc(Cl)cc(F)c3-c3noc(C)n3)cc2F)on1 TRUE
COC(=O)c1c(F)cccc1-c1ccc(CN2CCCC2=O)c(F)c1 FALSE
CC(=O)Nn1ccnc1NCc1ccc(-c2cc(Cl)cc(F)c2-c2noc(C)n2)cc1F TRUE
COC(=O)c1c(F)cccc1-c1ccc(CNc2nc3ccccc3[nH]2)c(F)c1 FALSE
COC(=O)c1c(F)cccc1-c1ccc(CNC(C)=O)c(F)c1 FALSE

Could you please find out whether `CC(=O)Nn1c(NCc2ccc(-c3cc(Cl)cc(F)c3-c3noc(C)n3)cc2F)nc(C)c1C` has pIC50 that meets 7 or exceeds it? FALSE

Would you say `CC(=O)Nc1nonc1NCc1ccc(-c2cc(Cl)cc(F)c2-c2noc(C)n2)cc1F` shows pIC50 at minimum 7? TRUE

Check this compound for pIC50 at or above 7: `COc1cc(C(=O)Nn2ccnc2NCc2ccc(-c3cc(Cl)cc(F)c3-c3noc(C)n3)cc2F)on1` TRUE

pIC50 >= 7 for `COc1cc(C(=O)Nc2nsnc2NCc2ccc(-c3cc(Cl)cc(F)c3-c3noc(C)n3)cc2F)on1` ? TRUE

Form field: pIC50 at least 7? Entry: `COc1cc(C(=O)Nc2cn[nH]c2NCc2ccc(-c3cc(Cl)cc(F)c3-c3noc(C)n3)cc2F)on1` TRUE
